tested on: Cryptococcus neoformans; test: Antifungal activity against Cryptococcus neoformans ATCC 32264; assay type: functional
attribute_measured: MFC

Lab note: measured MFC of O=C1CCC(=O)N1CCCCc1ccccc1 was > 250 µg/mL

Lab note: measured MFC of O=C1C(c2ccccc2)=C(c2ccccc2)C(=O)N1c1ccccc1 was > 250 µg/mL

Lab note: measured MFC of CC1=CC(=O)N(c2ccccc2)C1O (stereo not drawn) was > 250 µg/mL

Lab note: measured MFC of O=C1C(c2ccccc2)=C(c2ccccc2)C(=O)N1CCc1ccccc1 was > 250 µg/mL

Lab note: measured MFC of CC1=C(C)C(=O)N(CCCCc2ccccc2)C1=O was > 250 µg/mL

Lab note: measured MFC of O=C1C(c2ccccc2)=C(c2ccccc2)C(=O)N1CCCCc1ccccc1 was > 250 µg/mL

Lab note: measured MFC of CCCCN1C(=O)C=CC1=O was 7.81 µg/mL

Lab note: measured MFC of CC1=CC(=O)N(Cc2ccccc2)C1O (stereo not drawn) was > 250 µg/mL

Lab note: measured MFC of O=C1C=CC(=O)N1c1ccccc1 was 62.5 µg/mL

Lab note: measured MFC of Cc1ccc(N2C(=O)C=CC2=O)cc1 was 7.81 µg/mL

Lab note: measured MFC of O=C1C=CC(=O)N1c1ccc(F)cc1 was 15.6 µg/mL

Lab note: measured MFC of O=C1C=CC(O)N1c1ccccc1 (stereo not drawn) was > 250 µg/mL

Lab note: measured MFC of O=C1C=CC(O)N1CCCCc1ccccc1 (stereo not drawn) was > 250 µg/mL

Lab note: measured MFC of CC1=CC(=O)N(CCCc2ccccc2)C1O (stereo not drawn) was > 250 µg/mL

Lab note: measured MFC of O=C1CCC(=O)N1CCc1ccccc1 was > 250 µg/mL

Lab note: measured MFC of COc1ccc(N2C(=O)C=CC2=O)c(OC)c1 was 7.81 µg/mL

Lab note: measured MFC of CC1=CC(O)N(CCCCc2ccccc2)C1=O (stereo not drawn) was > 250 µg/mL

Lab note: measured MFC of CC1=CC(O)N(Cc2ccccc2)C1=O (stereo not drawn) was > 250 µg/mL

Lab note: measured MFC of Cc1ccccc1N1C(=O)C=CC1=O was 7.81 µg/mL

Lab note: measured MFC of O=C1C=CC(=O)N1c1ccc(F)cc1F was 7.81 µg/mL

Lab note: measured MFC of CCCN1C(=O)C=CC1=O was 15.6 µg/mL

Lab note: measured MFC of O=C1C=CC(=O)N1CCc1ccccc1 was 15.6 µg/mL

Lab note: measured MFC of CC1=CC(=O)N(CCc2ccccc2)C1O (stereo not drawn) was > 250 µg/mL
